- assay.system: T1, full-length human GIPR (GenBank NM_000164) with an N-terminal FLAG tag on HEK-293T cells (human), P48546
- T1 chain: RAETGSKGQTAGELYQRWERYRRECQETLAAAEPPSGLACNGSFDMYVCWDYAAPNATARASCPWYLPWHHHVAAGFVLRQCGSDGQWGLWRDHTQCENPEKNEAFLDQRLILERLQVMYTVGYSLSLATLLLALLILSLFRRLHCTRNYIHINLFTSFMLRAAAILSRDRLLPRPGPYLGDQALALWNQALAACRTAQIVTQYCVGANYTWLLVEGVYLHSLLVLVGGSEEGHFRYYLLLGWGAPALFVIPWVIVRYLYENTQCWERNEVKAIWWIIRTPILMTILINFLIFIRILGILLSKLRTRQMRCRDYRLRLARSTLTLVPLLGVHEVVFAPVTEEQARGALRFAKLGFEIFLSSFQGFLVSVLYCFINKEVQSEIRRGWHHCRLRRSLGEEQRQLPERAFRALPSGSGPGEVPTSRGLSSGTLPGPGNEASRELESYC
- procedure.summary: cell-based or functional assay
Numbered stars: 1 amine (or outer) side, 2 acyl side, 3 side chain; on linkers, the order of the positions; unused ones are H or OH. Square brackets hold non-standard residues; d marks the D form. Primed or numbered codes have the meaning given here. Side chains are listed from the residue outwards. Ends that are not written are not given here. * marks the point of attachment. C20 diacid = O=C(O)CCCCCCCCCCCCCCCCCCC(=O)*; C18 diacid = O=C(O)CCCCCCCCCCCCCCCCC(=O)*; C16 diacid = O=C(O)CCCCCCCCCCCCCCC(=O)*; γGlu = O=C(O)[C@H](CCC(=O)[*:2])N[*:1]; Iva = CC[C@](C)(N)C(=O)O; PEG3′ = not defined here; Aib = CC(C)(N)C(=O)O
Below is a list of entries, each paired with its recorded GIP EC50(pM) value.

| binder | GIP EC50(pM) |
| --- | --- |
| Y[Aib]EGTFISDYSIALDR[Aib]HQ[Aib]NFVNW[Iva]LAQRKSSGAPPPS (not fully specified (residue 31); ends and bridges not checked) [Compound No. 470] | 1.12 |
| Y[Aib]EGTFISDYSIALDR[Aib]HQ[Aib]NFVNW[Iva]LAQRPSSGAPPPK([PEG3′-PEG3′-C16 diacid])R (ends and bridges not checked) [Compound No 939] | 0.6 |
| Y[Aib]EGTFISDYSIALDR[Aib]HQ[Aib]NFVNW[Iva]LAQRGGGGSGGGGSK([PEG3′-PEG3′-γGlu-C18 diacid]) (ends and bridges not checked) [Compound No 943] | 1.5 |
| Y[Aib]EGTFISDYSIALDR[Aib]HQ[Aib]NFVNW[Iva]LAQRPSSGK([PEG3′-PEG3′-γGlu-Ida])PPPS (ends and bridges not checked) [Compound No. 498] | 0.6 |
| Y[Aib]EGTFISDYSIALDR[Aib]HQ[Aib]NFVNW[Iva]LAQRK([PEG3′-PEG3′-C18 diacid])SSGAPPPSR (ends and bridges not checked) [Compound No 912] | 0.7 |
| Y[Aib]EGTFISDYSIALDR[Aib]HQ[Aib]NFVNW[Iva]LAQRPK([PEG3′-PEG3′-C18 diacid])SGAPPPSR (ends and bridges not checked) [Compound No 893] | 2.3 |
| Y[Aib]EGTFISDYSIALDR[Aib]HQ[Aib]NFVNW[Iva]LAQRPSSGAPPPK([PEG3′-γGlu-C16 diacid]) (ends and bridges not checked) [Compound No. 533] | 0.59 |
| Y[Aib]EGTFISDYSIALDR[Aib]HQ[Aib]NFVNW[Iva]LAQRPK([PEG3′-PEG3′-C16 diacid])SGAPPPSR (ends and bridges not checked) [Compound No 892] | 1.7 |
| Y[Aib]EGTFISDYSIALDR[Aib]HQ[Aib]NFVNW[Iva]LAQRPSSGK([PEG3′-PEG3′-γGlu-C20 diacid])PPPS (ends and bridges not checked) [Compound No. 499] | 1.17 |
| Y[Aib]EGTFISDYSIALDR[Aib]HQ[Aib]NFVNW[Iva]LAQRK([PEG3′-PEG3′-γGlu-C16 diacid])SSGAPPPS (ends and bridges not checked) [Compound No. 485] | 0.28 |
